Source of measurements: paper PMC11650849

Let's look at some compounds and their measured fn (%).
- run.description: Neutral fraction at pH 7.4 calculated from pKa
- Assay type: physicochemical
- conditions.used: neutral fraction at perfusion fluid pH 7.40, calculated from pKa
Dear colleague, please return just the value in %, with no unit written.

Examples from the recorded data:
Cc1cc(=O)n(-c2ccccc2)n1C [Antipyrine] ... 100
OCC(O)CO ... 100
CC(=O)CC(c1ccccc1)c1c(O)c2ccccc2oc1=O (centres unmarked) ... 0.01

In: Reported fn (%) for NC(=O)c1cccnc1 [Nicotinamide] : what is it?
Out: 100

In: Here is the next compound: `OCCCCCCO`
Out: 100

In: Subsequent entry: `O=C(CO)[C@@H](O)[C@H](O)[C@H](O)CO`
Out: 100

In: Follow-up item: `CCC1(CC)C(=O)NC(=O)NC1=O`
Out: 79.9

In: Same thing, different compound: CC(C)NC(C)Cc1ccc(I)cc1 (centres unmarked)
Out: 3.07

In: Now consider `C[C@]12CC[C@H](O)CC1=CC[C@@H]1[C@@H]2CC[C@]2(C)C(=O)CC[C@@H]12` and answer again.
Out: 100

In: Here is the next compound: `Nc1ccccc1C(=O)O`
Out: 0.33

In: Queued: CCCC(C)C1(CC)C(=O)NC(=O)NC1=O (centres unmarked)
Out: 75.1

In: Would you mind doing CC(N)=O [Acetamide] as well?
Out: 100

In: Now try `CCCCO` .
Out: 100

----------
- conditions.used: rat
measurement.type: half-life (min)
Report as a plain number; the unit min is understood.

Sample records with half-life:
CCCC(C)C1(CC)C(=O)NC(=O)NC1=O (centres unmarked) ... 1.44
O=C(CO)[C@@H](O)[C@H](O)[C@H](O)CO ... 168
OCCCCO ... 1.14

In: What value of half-life has been recorded for this entry: CC(C)NC(C)Cc1ccc(I)cc1 (centres unmarked)
Out: 3.16

In: One more molecule: O=C1Nc2ccc(Cl)cc2C(c2ccccc2Cl)=NC1O (centres unmarked)
Out: 1.39

In: And what about the molecule `O=C(O)CCCc1ccc(N(CCCl)CCCl)cc1` ?
Out: 1.23

In: What do we get for `CCC1(c2ccccc2)C(=O)NC(=O)NC1=O` ?
Out: 7.39

In: `CCC1(CC)C(=O)NC(=O)NC1=O` , same question.
Out: 3.63

----------
- conditions.used: rat, in vivo, po, pH 7.4
measurement.type: Log Po
Please respond with just the number, no unit label.

Observe how each entry below is paired with its result.
CCC1(CC)C(=O)NC(=O)NC1=O ... −4.32
Fc1ccc([C@@H]2CCNC[C@H]2COc2ccc3c(c2)OCO3)cc1 ... −0.41
OC[C@@H](O)[C@@H](O)[C@H](O)[C@H](O)CO ... −7.06
OCC(O)CO ... −6.08
CCCC(C)C1(CC)C(=O)NC(=O)NC1=O (centres unmarked) ... −3.22

Here is another compound to look at.
In: Looking for the measured Log Po of `OCCCCO` , can you help?
Out: −3.82

----------
- conditions.used: rat, in vivo, pH 7.4
Catalogue of molecules with associated Pc
Write the answer as a number in ×10⁻⁶ cm/s, unit excluded.

COC(=O)[C@H]1[C@H]2C[C@@H]3c4[nH]c5cc(OC)ccc5c4CCN3C[C@H]2C[C@@H](OC(=O)c2cc(OC)c(OC)c(OC)c2)[C@@H]1OC ... 898
OC[C@@H](O)[C@@H](O)CO ... 0.324
CCC1(c2ccccc2)C(=O)NC(=O)NC1=O ... 65.1
OC[C@@H](O)[C@@H](O)[C@H](O)[C@H](O)CO ... 0.088

In: Find the recorded Pc belonging to `Fc1ccc([C@@H]2CCNC[C@H]2COc2ccc3c(c2)OCO3)cc1` and report it.
Out: 1230

In: Entry Cc1c(I)c(=O)n(-c2ccccc2)n1C [Iodoantipyrine] please
Out: 1560

In: How about this molecule: `OCCCCO`
Out: 151
